molecular target: GlcNAc(b1-4)GlcNAc; experiment: glycan array binding signal (z-score within array); higher = stronger binding; details: glycan notation: IUPAC condensed, linker removed
This excerpt belongs to a sample that is enriched for the strongest signals.
Each record here notes measured glycan array binding signal (z-score).

[
  {
    "BINDER": "MpAFP NterminalRI GFP (Marinomonas primoryensis) (protein) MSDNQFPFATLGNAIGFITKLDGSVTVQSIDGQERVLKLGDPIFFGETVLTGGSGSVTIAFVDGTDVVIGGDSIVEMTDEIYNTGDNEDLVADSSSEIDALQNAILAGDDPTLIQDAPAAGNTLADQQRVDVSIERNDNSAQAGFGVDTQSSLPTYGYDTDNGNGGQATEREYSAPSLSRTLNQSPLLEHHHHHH",
    "glycan array binding signal (z-score)": 4.84
  },
  {
    "BINDER": "NKp30 (Homo sapiens), O14931 (protein) MAWMLLLILIMVHPGSCALWVSQPPEIRTLEGSSAFLPCSFNASQGRLAIGSVTWFRDEVVPGKEVRNGTPERFGRLAPLASSRFLHDHQAELHIRDVRGHDASIYVCRVEVLGLGVGTGNGTRLVVRKEHPQLGAGTHADPEAPEAEGAPSVFLFPPKPKDTLMISRTPEVTCVVVDVSHEDPEVKFNWYVDGVEVHNAKTPREEQYNSTYRVVSVLTVLHQDWLNGKEYKCKVSNKALPAPIEKTISKAKGQPREPQVYTLPPSRDELTKNQVSLTCLVKGFYPSDIAVEWESNGQPENNYKTTPPVLDSDGSFFLYSKLTVDKSRWQQGNVFSCSVMHEALHNHYTQKSLSLSPGK",
    "glycan array binding signal (z-score)": 0.115
  },
  {
    "BINDER": "HHA (Hippeastrum hybrid) (protein) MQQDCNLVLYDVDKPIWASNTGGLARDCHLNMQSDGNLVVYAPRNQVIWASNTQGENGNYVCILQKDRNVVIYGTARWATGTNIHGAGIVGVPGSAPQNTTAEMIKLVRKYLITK",
    "glycan array binding signal (z-score)": -0.211
  }
]
